Reference source for all entries: ChEMBL document CHEMBL1157605

Biological target: Muscarinic acetylcholine receptor M1 (Homo sapiens)
Conditions: CHO
Description: Displacement of [3H]NMS from human muscarinic M1 receptor expressed in CHO cells in ternary complex by EATCM analysis
Experimental Endpoint: logKd

[[record]]
molecular_string = "CCCCCCOc1nsnc1C1=CCCN(C)C1"
experimental_endpoint = "logKd"
result = 4.94

[[record]]
molecular_string = "CN1CCC=C(c2nsnc2OCCCOCC(=O)NCCCNc2c3c(nc4ccccc24)CCCC3)C1"
experimental_endpoint = "logKd"
result = 7.87

[[record]]
molecular_string = "CN1CCC=C(c2nsnc2OCCCCNCCCCNc2c3c(nc4ccccc24)CCCC3)C1"
experimental_endpoint = "logKd"
result = 7.49

[[record]]
molecular_string = "CN1CCC=C(c2nsnc2OCCCOCCCC(=O)NCCCCCCCCNc2c3c(nc4ccccc24)CCCC3)C1"
experimental_endpoint = "logKd"
result = 7.06

[[record]]
molecular_string = "CN1CCC=C(c2nsnc2OCCCOCC(=O)NCCCCCCCCNc2c3c(nc4ccccc24)CCCC3)C1"
experimental_endpoint = "logKd"
result = 6.35

[[record]]
molecular_string = "CN1CCC=C(c2nsnc2OCCCOCCC(=O)NCCCNc2c3c(nc4ccccc24)CCCC3)C1"
experimental_endpoint = "logKd"
result = 8.03

[[record]]
molecular_string = "CN1CCC=C(c2nsnc2OCCCOCCC(=O)NCCCCCCCCNc2c3c(nc4ccccc24)CCCC3)C1"
experimental_endpoint = "logKd"
result = 6.7


----------
For Cholinesterase (Equus caballus, UniProt P81908), measured IC50 is reported for the entries below.
Experimental Endpoint: IC50 (nM)

[[record]]
molecular_string = "CN1CCC=C(c2nsnc2OCCCOCCCCC(=O)NCCCCNc2c3c(nc4ccccc24)CCCC3)C1"
readout_number = 5.89

[[record]]
molecular_string = "CN1CCC=C(c2nsnc2OCCCCNCCCNc2c3c(nc4ccccc24)CCCC3)C1"
readout_number = 28.8

[[record]]
molecular_string = "CN1CCC=C(c2nsnc2OCCCCNCCCCCCCCNc2c3c(nc4ccccc24)CCCC3)C1"
readout_number = 13.5

[[record]]
molecular_string = "CN1CCC=C(c2nsnc2OCCCOCCCC(=O)NCCCCNc2c3c(nc4ccccc24)CCCC3)C1"
readout_number = 6.76

[[record]]
molecular_string = "CN1CCC=C(c2nsnc2OCCCOCC(=O)NCCCNc2c3c(nc4ccccc24)CCCC3)C1"
readout_number = 9.77

[[record]]
molecular_string = "CN1CCC=C(c2nsnc2OCCCOCCC(=O)NCCCCCCCCNc2c3c(nc4ccccc24)CCCC3)C1"
readout_number = 13.2

[[record]]
molecular_string = "CN1CCC=C(c2nsnc2OCCCCNCCCCNc2c3c(nc4ccccc24)CCCC3)C1"
readout_number = 16.2

[[record]]
molecular_string = "CN1CCC=C(c2nsnc2OCCCCNCCCCCNc2c3c(nc4ccccc24)CCCC3)C1"
readout_number = 12.3

[[record]]
molecular_string = "CN1CCC=C(c2nsnc2OCCCOCCCC(=O)NCCCNc2c3c(nc4ccccc24)CCCC3)C1"
readout_number = 10


----------
pIC50: −log10 of the molar value.
For Acetylcholinesterase (Electrophorus electricus, UniProt O42275), measured pIC50 is reported for the entries below.
Experimental Endpoint: pIC50

[[record]]
molecular_string = "CN1CCC=C(c2nsnc2OCCCOCC(=O)NCCCCNc2c3c(nc4ccccc24)CCCC3)C1"
readout_number = 7.92

[[record]]
molecular_string = "CN1CCC=C(c2nsnc2OCCCCNCCCCCNc2c3c(nc4ccccc24)CCCC3)C1"
readout_number = 7.66

[[record]]
molecular_string = "CN1CCC=C(c2nsnc2OCCCOCCCCC(=O)NCCCNc2c3c(nc4ccccc24)CCCC3)C1"
readout_number = 7.99

[[record]]
molecular_string = "CN1CCC=C(c2nsnc2OCCCOCC(=O)NCCCNc2c3c(nc4ccccc24)CCCC3)C1"
readout_number = 7.83

[[record]]
molecular_string = "CN1CCC=C(c2nsnc2OCCCOCC(=O)NCCCCCCCCNc2c3c(nc4ccccc24)CCCC3)C1"
readout_number = 8.18

[[record]]
molecular_string = "CN1CCC=C(c2nsnc2OCCCOCCCC(=O)NCCCNc2c3c(nc4ccccc24)CCCC3)C1"
readout_number = 7.97

[[record]]
molecular_string = "CN1CCC=C(c2nsnc2OCCCOCCC(=O)NCCCNc2c3c(nc4ccccc24)CCCC3)C1"
readout_number = 7.87

[[record]]
molecular_string = "CN1CCC=C(c2nsnc2OCCCCNCCCNc2c3c(nc4ccccc24)CCCC3)C1"
readout_number = 7.20

[[record]]
molecular_string = "CN1CCC=C(c2nsnc2OCCCCNCCCCCCCCNc2c3c(nc4ccccc24)CCCC3)C1"
readout_number = 7.58

[[record]]
molecular_string = "CN1CCC=C(c2nsnc2OCCCOCCCC(=O)NCCCCCCCCNc2c3c(nc4ccccc24)CCCC3)C1"
readout_number = 8.19

[[record]]
molecular_string = "CN1CCC=C(c2nsnc2OCCCCNCCCCNc2c3c(nc4ccccc24)CCCC3)C1"
readout_number = 7.36

[[record]]
molecular_string = "CN1CCC=C(c2nsnc2OCCCOCCCCC(=O)NCCCCNc2c3c(nc4ccccc24)CCCC3)C1"
readout_number = 8.06

[[record]]
molecular_string = "CN1CCC=C(c2nsnc2OCCCOCCC(=O)NCCCCNc2c3c(nc4ccccc24)CCCC3)C1"
readout_number = 7.97

[[record]]
molecular_string = "CN1CCC=C(c2nsnc2OCCCOCCCCC(=O)NCCCCCCCCNc2c3c(nc4ccccc24)CCCC3)C1"
readout_number = 8.21

[[record]]
molecular_string = "CN1CCC=C(c2nsnc2OCCCOCCC(=O)NCCCCCCCCNc2c3c(nc4ccccc24)CCCC3)C1"
readout_number = 7.64

